- Tested on: MDA-MB-468 breast
- Test Protocol: NCI tumour cell line growth inhibition, 48 h
GI50 listing for selected molecules.

These solved cases illustrate the format of a correct answer.
> print(dat)
                            molecule.smiles  experimental.result
1  COc1cccc(COc2cc(-n3cnc4ccccc43)sc2C(N)=O)c1             0.717 µM
2  COc1cc2oc(-c3cccc(C(=O)Nc4ccc(Cl)cc4)c3)cc(=O)c2c(OCCNC(=O)[C@H](CO)NC(=O)OC(C)(C)C)c1OC              13.9 µM

Kindly consider the entry below.
Input: Give the measured GI50 for CCNCCNc1cc(-c2ccc(C#N)cc2)c(C#N)c2nc3ccccc3n12
Output: 1.79 µM

Value source: PubChem BioAssay (NCI)
